# TEST_SUMMARY: Ex vivo drug level wild type mdr1a (+/+) CF1 mouse plasma at 1 mg/kg, po after 2 hrs
# Type: ADME, organism-based
# Set-up: dose 1 mg/kg, route oral
# CONDITION_INFO: read-out: Drug uptake
MEASURED_ENDPOINT: concentration at 2 h (nM)

>>> recorded_result("Cc1nc2cccc(C(F)(F)F)c2c(=O)n1-c1ccc(OC2CCN(C3CCC3)CC2)cc1")
12

###

# TEST_SUMMARY: AUC (0 to infinity) in Beagle dog at 1 mg/kg, po
# Assay type: ADME, organism-based, Canis lupus familiaris, Plasma
# Set-up: time infinity, dose 1 mg/kg, route oral
# CONDITION_INFO: Beagle, plasma
Below, each entry is listed with its recorded AUC(0-inf).
MEASURED_ENDPOINT: AUC(0-inf) (µM·h)

>>> recorded_result("Cc1nc2cccc(C(F)(F)F)c2c(=O)n1-c1ccc(OC2CCN(C3CCC3)CC2)cc1")
1.3
>>> recorded_result("Cc1nc2cccc(F)c2c(=O)n1-c1ccc(OC2CCN(C3CCC3)CC2)cc1")
0.05

###

# TEST_SUMMARY: Ratio of drug level brain to plasma in mdr1a (-/-) deficient CF1 mouse at 1 mg/kg, po after 2 hrs
# Format: ADME, organism-based
# Parameters: dose 1 mg/kg, route oral
# CONDITION_INFO: read-out: BPR
MEASURED_ENDPOINT: Kp at 2 h

>>> recorded_result("Cc1nc2cccc(C(F)(F)F)c2c(=O)n1-c1ccc(OC2CCN(C3CCC3)CC2)cc1")
13

###

# ASSAY_TARGET: Histamine H3 receptor (Homo sapiens)
# Sequence (Q9Y5N1 whole entry): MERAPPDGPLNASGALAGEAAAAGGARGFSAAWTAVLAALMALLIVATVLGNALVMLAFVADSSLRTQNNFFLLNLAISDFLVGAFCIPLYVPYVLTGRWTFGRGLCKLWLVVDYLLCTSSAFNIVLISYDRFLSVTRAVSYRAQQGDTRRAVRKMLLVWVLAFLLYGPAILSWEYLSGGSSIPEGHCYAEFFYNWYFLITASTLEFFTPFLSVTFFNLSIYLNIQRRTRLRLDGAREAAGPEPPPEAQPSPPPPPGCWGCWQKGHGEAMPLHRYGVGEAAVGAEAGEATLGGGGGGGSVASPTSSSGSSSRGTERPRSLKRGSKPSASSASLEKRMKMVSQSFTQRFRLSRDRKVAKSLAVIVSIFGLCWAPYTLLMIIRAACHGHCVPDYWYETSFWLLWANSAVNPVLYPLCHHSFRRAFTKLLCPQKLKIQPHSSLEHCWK
# TEST_SUMMARY: Antagonist activity at human cloned histamine H3 receptor expressed in CHO-K1 cells assessed as inhibition of R-alpha-methylhistamine-induced [35S]GTPgammaS binding
pIC50: −log10 of the molar value.
MEASURED_ENDPOINT: pIC50

>>> recorded_result("Cc1nc2ccccc2c(=O)n1-c1ccc(OC2CCN(C3CCCCC3)CC2)cc1")
7.37
>>> recorded_result("Cc1nc2ccncc2c(=O)n1-c1ccc(OC2CCN(C3CCC3)CC2)cc1")
8.70
>>> recorded_result("Cc1nc2ccccc2c(=O)n1-c1ccc(OC2CCCN(C3CCCC3)CC2)cc1 (stereo not given)")
8.15
>>> recorded_result("Cc1nc2ccccc2c(=O)n1-c1ccc(O[C@H]2CC[C@H](N3CCCC3)CC2)cc1")
6.09
>>> recorded_result("Cc1nc2cc(F)c(F)cc2c(=O)n1-c1ccc(OC2CCN(C3CCC3)CC2)cc1")
9.04

###

# Test system: LLC-PK1
# TEST_SUMMARY: Ratio of permeability from apical to basolateral side over basolateral to apical side in pig LLC-PK1 cells expressing human MDR1
# Format: ADME, cell-based, Sus scrofa
Below, each entry is listed with its recorded Ratio.
MEASURED_ENDPOINT: Ratio

>>> recorded_result("Cc1cccc2nc(C)n(-c3ccc(OC4CCN(C5CCC5)CC4)cc3)c(=O)c12")
0.9
>>> recorded_result("Cc1nc2cccc(F)c2c(=O)n1-c1ccc(OC2CCN(C3CCC3)CC2)cc1")
1
>>> recorded_result("Cc1nc2cccc(C(F)(F)F)c2c(=O)n1-c1ccc(OC2CCN(C3CCC3)CC2)cc1")
0.7

###

Below, each entry is listed with its recorded bioavailability.
# TEST_SUMMARY: Oral bioavailability in Beagle dog at 1 mg/kg
# Assay type: ADME, organism-based, Canis lupus familiaris
# CONDITION_INFO: Beagle, in vivo
MEASURED_ENDPOINT: bioavailability

>>> recorded_result("Cc1nc2cccc(F)c2c(=O)n1-c1ccc(OC2CCN(C3CCC3)CC2)cc1")
"4.8%"
>>> recorded_result("Cc1nc2cccc(C(F)(F)F)c2c(=O)n1-c1ccc(OC2CCN(C3CCC3)CC2)cc1")
"46%"
